The measured values listed here are drawn from PubChem BioAssay AID1159580.

# Protocol details: chemical genetic growth profiling, strain panel (AID 1159580);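 further: tested at 20 µM; growth read once vehicle control cultures reached saturation at 30 °C; 1 = growth at the plate median or of vehicle wells; lower values mean less growth of the strain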
# Test parameters: S. cerevisiae deletion strains, growth OD, locus YNL222W, strain SSU72, hits give low values
Screen size: about 5,500 compounds; about 2,000 (36%) were called active. Roughly 18% stayed inconclusive and do not appear here. This is one part of the list.
Parameter: normalized growth
Give the value as a plain number.

normalized growth lookup needed for "CCCCN(C)C(=O)c1cc([N+](=O)[O-])cc2c1-c1ccc([N+](=O)[O-])cc1C2=C(C#N)C#N" , thanks.
0.978

What do you get for "O=[N+]([O-])c1ccc(Sc2ssc(=S)c2-c2ccccc2)nc1" ?
0.934

What do you get for "CC(=O)Nc1ccc(S(=O)(=O)Nc2ccccc2Oc2ccc(Cl)cc2Cl)cc1" ?
0.995

What do you get for "Cc1c(-c2ccnn2C(=O)c2ccco2)cnn1-c1ccccc1" ?
0.943

What do you get for "Cc1ccc(NNC(=O)c2c(C)noc2C)cc1Cl" ?
0.982

What do you get for "Cc1nc(-c2ccc(S(=O)(=O)Nc3ccc(Br)cc3Cl)s2)cs1" ?
0.952

What do you get for "FC(F)(F)c1ccnc(N2CCCN(C(=S)Nc3ccc(Cl)cc3Cl)CC2)n1" ?
0.978

What do you get for "Cc1c(C(=O)N(Cc2ccccc2)Cc2cccs2)cnn1-c1ccc(Cl)cc1" ?
0.99

What do you get for "CC1(C)OC(=O)C(=Cc2cccn2-c2ccc(OC(F)(F)F)cc2)C(=O)O1" ?
0.98

What do you get for "CCCCCCCCCCCC(=O)NOC(=O)c1c(-c2c(Cl)cccc2Cl)noc1C" ?
0.988

What do you get for "Cc1c(C(=S)Nc2ccccc2)sc2ccccc12" ?
0.941

What do you get for O=[N+]([O-])c1ccc2oc(C(O)c3cccc(Cl)c3)cc2c1 (stereo not given) ?
0.947

What do you get for "Cc1ccc(NS(=O)(=O)c2ccc(Cl)cc2)c(N=Cc2cc(Cl)cc(Cl)c2O)c1" ?
0.963

What do you get for "CC(C)(C)c1ccc(C(=O)Nc2ccc(C(F)(F)F)cc2)s1" ?
0.988

What do you get for "Cc1onc(-c2c(F)cccc2Cl)c1C(=O)NNc1cc(Cl)cc(Cl)c1" ?
0.988

* * *

# Protocol details: chemical genetic growth profiling, strain panel (AID 1159580)
# Test parameters: S. cerevisiae deletion strains, growth OD, locus YJL092W, strain hpr5, hits give low values
Out of some 5,500 compounds screened, about 2,000 (36%) were called active. Roughly 18% stayed inconclusive and do not appear here. The list shows a part of the results.
Parameter: normalized growth
Give the value as a plain number.

normalized growth lookup needed for "O=c1cc[nH]c(=S)[nH]1" , thanks.
1

What do you get for "O=C1OC(c2ccc(O)cc2)(c2ccc(O)cc2)c2ccccc21" ?
0.995

What do you get for "OC(Cn1cncn1)(Cn1cncn1)c1ccc(F)cc1F" ?
0.998

What do you get for "CCCCOC(=O)c1ccccc1C(=O)OCCCC" ?
0.98

What do you get for "CCCCC(=O)Oc1ccccc1C(=O)O" ?
0.971

* * *

# Protocol details: chemical genetic growth profiling, strain panel (AID 1159580)
# Test parameters: S. cerevisiae deletion strains, growth OD, locus YBL061C, strain skt5, hits give low values
The whole screen tested about 5,500 compounds, of which about 2,000 (36%) were called active. Another 18% or so got no clear call; they are omitted. Some of the results follow.
What normalized growth was measured for each of the following?
Give the value as a plain number.

normalized growth lookup needed for C=C1C(=O)OC2CC1C(OC(C)=O)C/C(C)=C/CC/C(C)=C/CC[C@]2(C)O (stereo partly drawn) , thanks.
1.01

What do you get for "Cc1cc(-c2ccccc2)nnc1NCCN1CCOCC1" ?
0.991

What do you get for CC(C)(Oc1ccc(C2CC2(Cl)Cl)cc1)C(=O)O (stereo not drawn) ?
0.997

What do you get for "COc1cc(OC)c2c(=O)c(-c3ccccc3)coc2c1" ?
0.958

What do you get for "CCN(CC)CCOC(=O)c1ccc(N)cc1" ?
0.999

What do you get for CO/N=C(\C(=O)NC1C(=O)N2C(C(=O)OC(C)OC(C)=O)=C(COC(N)=O)CSC12)c1ccco1 (stereo not drawn) ?
0.992

What do you get for O=C1[C@H](CCC(O)c2ccc(F)cc2)[C@@H](c2ccc(O)cc2)N1c1ccc(F)cc1 (stereo partly drawn) ?
0.973

What do you get for "CO/N=C(\C(=O)N[C@@H]1C(=O)N2C(C(=O)O)=C(CSc3nc(=O)c(O)nn3C)CS[C@H]12)c1csc(N)n1" ?
0.966

* * *

# Protocol details: chemical genetic growth profiling, strain panel (AID 1159580);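 further: tested at 20 µM; growth read once vehicle control cultures reached saturation at 30 °C; 1 = growth at the plate median or of vehicle wells; lower values mean less growth of the strain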
# Test parameters: S. cerevisiae deletion strains, growth OD, locus YML070W, strain DAK1, hits give low values
In all, about 5,500 compounds went through this assay and about 2,000 (36%) were called active. About 18% were inconclusive and are not listed. Some of the results follow.
What normalized growth was measured for each of the following?

normalized growth lookup needed for "CC(=O)ON=C1c2cc([N+](=O)[O-])ccc2-c2ccc([N+](=O)[O-])cc21" , thanks.
0.852 (inactive)

What do you get for "Cc1c(-c2ccnn2C(=O)c2ccco2)cnn1-c1ccccc1" ?
0.895 (inactive)

What do you get for "ClC1=C(C=Nc2ccc(Cl)cc2)CSc2ccc(Cl)cc21" ?
0.89 (inactive)

What do you get for "FC(F)(F)c1cccc(-n2c(CSCc3cccc4ccccc34)n[nH]c2=S)c1" ?
0.993 (inactive)

What do you get for "O=C(/C=C/Sc1nc2ccccc2s1)c1ccc(Cl)cc1" ?
0.877 (inactive)

What do you get for "O=C(Nc1ccc(OC(F)(F)F)cc1)OC1CN(C(c2ccccc2)c2ccccc2)C1" ?
0.966 (inactive)

What do you get for "OC(=Cc1nc2ccccc2nc1C=C(O)c1ccc(Cl)cc1)c1ccc(Cl)cc1" ?
0.855 (inactive)

* * *

# Protocol details: chemical genetic growth profiling, strain panel (AID 1159580);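 further: tested at 20 µM; growth read once vehicle control cultures reached saturation at 30 °C; 1 = growth at the plate median or of vehicle wells; lower values mean less growth of the strain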
# Test parameters: S. cerevisiae deletion strains, growth OD, locus YDR363W, strain ESC2, hits give low values
The campaign covered roughly 5,500 compounds. About 2,000 (36%) were called active. About 18% were inconclusive and are not listed. The list shows a part of the results.
Values of normalized growth strictly less than 1 map to Yes, and values of at least 1 map to No.

# strict comparison: is reported normalized growth < 1? input = CC(C)NCC(O)c1cc(O)cc(O)c1 (stereo unspecified)
No

What do you get for CC(C(O)c1ccc(O)cc1)N1CCC(Cc2ccccc2)CC1 (stereo unspecified) ?
Yes

What do you get for "CCCN1CCC[C@@H](c2cccc(C#N)c2)C1" ?
No

What do you get for "CC(C)C(=O)Nc1ccc([N+](=O)[O-])c(C(F)(F)F)c1" ?
No

What do you get for "O=C(O)C1CCNCC1" ?
Yes

What do you get for "C[C@@H]1O[C@H](C[N+](C)(C)C)CS1" ?
No

What do you get for "C[Se]C[C@H](N)C(=O)O" ?
Yes

What do you get for "CCCN1CCC[C@H](c2cccc(O)c2)C1" ?
No

What do you get for "N[C@H](CO)C(=O)O" ?
No

What do you get for "C=C1C(=O)O[C@@H]2[C@H]3O[C@]3(C)CCC=C(C)CC[C@@H]12" ?
Yes

What do you get for "CCCN1CCC[C@@H](c2cccc(O)c2)C1" ?
No

What do you get for OC(CN1CCC(Cc2ccc(F)cc2)CC1)c1ccc(Cl)cc1 (stereo unspecified) ?
No

* * *

# Protocol details: chemical genetic growth profiling, strain panel (AID 1159580);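 further: tested at 20 µM; growth read once vehicle control cultures reached saturation at 30 °C; 1 = growth at the plate median or of vehicle wells; lower values mean less growth of the strain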
# Test parameters: S. cerevisiae deletion strains, growth OD, locus YGL248W, strain PDE1
About 2,000 (36%) of roughly 5,500 compounds were called active. About 18% were inconclusive and are not listed. Cut-off read from the data, not from the text of the source: active = normalized growth mostly below about 0.91 (no sharp cut-off); inconclusive = no clear call, values can overlap the other calls; inactive = mostly above about 0.92. Some of the results follow.
Choose the fitting class; nothing outside active, inactive is accepted.

Field: outcome | Entry: "NC(=O)c1cccc(N)c1"
inactive

What do you get for C=C1C(C)C2C(Cc3ccccc3)NC(=O)C23OC(=O)/C=C/C(=O)CCCC(C)C/C=C/C3C1O (configuration not stated) ?
inactive

What do you get for C/C1=C\CCC(=O)C2CC(C)(C)C2CC1 (configuration not stated) ?
inactive

What do you get for CC1OC1P(=O)(O)O (configuration not stated) ?
inactive

What do you get for "CC(C)NC[C@H](O)COc1cccc2ccccc12" ?
inactive

What do you get for "CC1(C)NC(=O)N(c2ccc([N+](=O)[O-])c(C(F)(F)F)c2)C1=O" ?
inactive

What do you get for "COc1cc2occ(-c3ccccc3)c(=O)c2c(OC)c1C" ?
inactive

What do you get for O=C(C1CCCCC1)N1CC(=O)N2CCc3ccccc3C2C1 (configuration not stated) ?
inactive

What do you get for CCCNC1CCc2nc(N)sc2C1 (configuration not stated) ?
inactive

What do you get for "COc1cc(-c2coc3cc(OC)c(OC)c(OC)c3c2=O)cc(OC)c1OC" ?
inactive

What do you get for CO[C@@]1(NC(=O)CSCC#N)C(=O)N2C(C(=O)O)=C(CSc3nnnn3C)CSC21 (some centres not stated) ?
inactive

What do you get for "C=C1C(=O)O[C@@H]2C[C@@]3(C)CCC[C@H](C)C3=C[C@H]12" ?
active

What do you get for "COc1cc(-c2coc3cc(OCc4ccccc4)c(OC)c(O)c3c2=O)cc(O)c1OC" ?
active

What do you get for C#CCCCCCCCCCCCC(O)CC(O)CO (configuration not stated) ?
inactive

What do you get for C=C1CCC(C2CC(=O)OC2=O)C(=O)CCC2C1CC2(C)C (configuration not stated) ?
inactive

What do you get for "Cc1c(Cl)cccc1Nc1ccccc1C(=O)O" ?
active

What do you get for C=C1C(C)C2C(Cc3ccccc3)NC(=O)C23OC(=O)/C=C/C(O)CCCC(C)C/C=C/C3C1O (configuration not stated) ?
inactive

What do you get for "CC(=O)OCC(COC(C)=O)OC(C)=O" ?
inactive

What do you get for "Cc1ccc(Cl)c(Nc2ccccc2C(=O)O)c1Cl" ?
inactive

What do you get for NC(CO)C(=O)NNCc1ccc(O)c(O)c1O (configuration not stated) ?
inactive

What do you get for "CC(=O)Oc1c(C)cccc1C(=O)O" ?
inactive

What do you get for O=S1OCC2C(CO1)C1(Cl)C(Cl)=C(Cl)C2(Cl)C1(Cl)Cl (configuration not stated) ?
inactive
